Taken from ChEMBL document CHEMBL1143074.

ASSAY PROTOCOL: Inhibition of chymotrypsin
MEASURED ENDPOINT: IC50 (nM)
Write the answer as a number in nM, unit excluded.

In plain terms, CCCCCC(=O)N[C@@H](CC(=O)O)C(=O)N[C@@H]1C(=O)N[C@@H](Cc2ccc(O)cc2)C(=O)N[C@H]2CC[C@@H](O)N(C2=O)[C@@H](CC(C)C)C(=O)N(C)[C@@H](Cc2ccccc2)C(=O)N[C@@H](C(C)C)C(=O)O[C@@H]1C [CYANOPEPTOLIN 963A] has a documented IC50 of 900

---

ASSAY PROTOCOL: Inhibition of trypsin at 10 uM
The source made the active and inactive calls. The calls are words filed in the database; no cut-off is given here.

{"columns": ["COMPOUND", "Activity"],
 "data": [
  ["CC[C@H](C)[C@@H]1NC(=O)[C@H](Cc2ccc(O)cc2)N(C)C(=O)[C@H](CC(C)C)N2C(=O)[C@H](CC[C@H]2O)NC(=O)[C@H](CCC(N)=O)NC(=O)[C@@H](NC(=O)[C@@H](O)Cc2ccc(O)cc2)[C@@H](C)OC1=O [MICROPEPTIN SF909]", "inactive"],
  ["CCCCCC(=O)N[C@@H](CC(=O)O)C(=O)N[C@@H]1C(=O)N[C@@H](Cc2ccc(O)cc2)C(=O)N[C@H]2CC[C@@H](O)N(C2=O)[C@@H](CC(C)C)C(=O)N(C)[C@@H](Cc2ccccc2)C(=O)N[C@@H](C(C)C)C(=O)O[C@@H]1C [CYANOPEPTOLIN 963A]", "inactive"],
  ["CC(C)C[C@@H]1NC(=O)[C@@H](NC(=O)[C@@H](NC(=O)[C@H](C)NC(=O)[C@H](CCCc2ccc(O)cc2)NC(=O)[C@H](O)CO)C(C)C)[C@@H](C)OC(=O)[C@H](C(C)C)NC(=O)[C@H](Cc2ccc(O)c(Br)c2)N(C)C(=O)[C@H]([C@@H](C)O)N2C(=O)[C@H](CC[C@H]2O)NC1=O [LARGAMIDE D]", "inactive"]
]}

---

ASSAY PROTOCOL: Inhibition of chymotrypsin
MEASURED ENDPOINT: log10 of IC50 (log10 of the value in nM)
# values: log10(IC50), units nM

In plain terms, `CC[C@@H](C)[C@@H]1NC(=O)[C@H](Cc2ccc(OC)cc2)N(C)C(=O)[C@H]([C@@H](C)CC)N2C(=O)[C@H](CC[C@H]2O)NC(=O)[C@H](CCc2ccc(OC)cc2)NC(=O)[C@@H](NC(=O)[C@H](CCc2ccc(O)cc2)NC(=O)[C@@H](COS(=O)(=O)O)OC)[C@@H](C)OC1=O` has a documented log10 of IC50 of 3.25

In plain terms, `CC[C@H](C)[C@@H]1NC(=O)[C@H](Cc2ccccc2)N(C)C(=O)[C@H]([C@@H](C)CC)N2C(=O)[C@H](CC[C@H]2O)NC(=O)[C@H](C[C@H]2C=C[C@H](O)CC2)NC(=O)[C@@H](NC(=O)[C@H](CCc2ccc(O)cc2)NC(=O)[C@@H](COS(=O)(=O)O)OC)[C@@H](C)OC1=O` has a documented log10 of IC50 of 3.29

In plain terms, CCCC(=O)N[C@@H](Cc1ccccc1)C(=O)N[C@@H](CCC(=O)O)C(=O)N[C@@H]1C(=O)N[C@@H](Cc2ccc(O)cc2)C(=O)N[C@H]2CC[C@@H](O)N(C2=O)[C@@H](C(C)C)C(=O)N(C)[C@@H](Cc2ccccc2)C(=O)N[C@@H]([C@@H](C)CC)C(=O)O[C@@H]1C [MICROPEPTIN 88C] has a documented log10 of IC50 of 3.65

In plain terms, CCCC(=O)N[C@@H](CCC(N)=O)C(=O)N[C@@H]1C(=O)N[C@@H](CCCNC(N)=O)C(=O)N[C@H]2CC[C@@H](O)N(C2=O)[C@@H]([C@@H](C)CC)C(=O)N(C)[C@@H](Cc2ccc(OC)c(Br)c2)C(=O)N[C@@H](C(C)C)C(=O)O[C@@H]1C [SYMPLOCAMIDE A] has a documented log10 of IC50 of 2.58

In plain terms, CCCC(=O)N[C@@H](Cc1ccccc1)C(=O)N[C@@H](CCC(=O)O)C(=O)N[C@@H]1C(=O)N[C@@H](CC(C)C)C(=O)N[C@H]2CC[C@@H](O)N(C2=O)[C@@H](C(C)C)C(=O)N(C)[C@@H](Cc2ccccc2)C(=O)N[C@@H]([C@@H](C)CC)C(=O)O[C@@H]1C [MICROPEPTIN 88E] has a documented log10 of IC50 of 3.69

In plain terms, `CC(=O)N[C@@H](CCC(N)=O)C(=O)N[C@@H]1C(=O)N[C@@H](CC(C)C)C(=O)N[C@H]2CC[C@@H](O)N(C2=O)[C@@H](Cc2ccccc2)C(=O)N(C)[C@@H](Cc2ccc(O)cc2)C(=O)N[C@@H](C(C)C)C(=O)O[C@@H]1C` has a documented log10 of IC50 of 2.04

In plain terms, `CC[C@H](C)[C@@H]1NC(=O)[C@H](Cc2ccc(O)cc2)N(C)C(=O)[C@H](Cc2ccccc2)N2C(=O)[C@H](CC[C@H]2O)NC(=O)[C@H](Cc2ccccc2)NC(=O)[C@@H](NC(=O)[C@@H](O)COP(=O)(O)O)[C@@H](C)OC1=O` has a documented log10 of IC50 of 0.40

In plain terms, `CC[C@@H](C)[C@@H]1NC(=O)[C@H](Cc2ccccc2)N(C)C(=O)[C@H]([C@@H](C)CC)N2C(=O)[C@H](CC[C@H]2O)NC(=O)[C@H](CCc2ccc(O)cc2)NC(=O)[C@@H](NC(=O)[C@@H](CCc2ccc(O)cc2)NC(=O)[C@@H](COS(=O)(=O)O)OC)[C@@H](C)OC1=O` has a documented log10 of IC50 of 3.42
